molecular target: KRas G12D (Homo sapiens, UniProt P01116, G12D); experiment: KRas G12D Binding Assay (TR-FRET displacement of labeled tracer); conditions: TR-FRET displacement of Cy5 labelled tracer, biotinylated GDP-loaded KRAS G12D (aa 1:169), 60 minute incubation at 22° C.
Sequence (P01116 1-169 isoform P01116-2 G12D): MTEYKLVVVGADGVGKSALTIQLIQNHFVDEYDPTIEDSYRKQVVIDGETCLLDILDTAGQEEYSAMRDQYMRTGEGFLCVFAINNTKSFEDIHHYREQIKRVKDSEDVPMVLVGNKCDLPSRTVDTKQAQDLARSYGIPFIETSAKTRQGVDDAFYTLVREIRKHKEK
readout_label: pIC50
Lab note: report pIC50 as minus log10 of the concentration in molar units, number only.

Input: What value of pIC50 has been recorded for this entry: CO[C@@H]1C[C@@H]2CN(c3nc(OCC45CCCN4CC(F)C5)nc4c3CCN(c3cccc5cccc(Cl)c35)C4)C[C@H]1N2 (mixture of isomers) [Example 43]
Output: 7.05

Input: What value of pIC50 has been recorded for this entry: CN1CCC[C@H]1COc1nc2c(c(N3CC4CCC(CC#N)(C3)N4)n1)CCN(c1cccc3cccc(Cl)c13)C2 (stereo partly drawn) [Example 42]
Output: 5.74

Input: What value of pIC50 has been recorded for this entry: Cc1ccc2[nH]ncc2c1N1CCc2c(nc(OC[C@@H]3CCCN3C)nc2N2C[C@H]3CC[C@@H](C2)N3)C1 [Example 3]
Output: 5.88

Input: What value of pIC50 has been recorded for this entry: CN1CCC[C@H]1COc1nc2c(c(N3C[C@H]4CC[C@@H](C3)N4)n1)CCN(c1cncc3cccc(Cl)c13)C2 [Example 58]
Output: 6.55

Input: What value of pIC50 has been recorded for this entry: CN1CCC[C@H]1COc1nc2c(c(N3C[C@H]4CC(CCO)[C@@H](C3)N4)n1)CCN(c1cccc3cccc(Cl)c13)C2 (stereo partly drawn) [Example 91]
Output: 7.11

Input: What value of pIC50 has been recorded for this entry: F[C@H]1CN2CCCC2(COc2nc3c(c(N4CC5CCC(C4)N5)n2)CCN(c2cccc(Cl)c2C(F)(F)F)C3)C1 (mixture of isomers) [Example 48]
Output: 8.26

====

target: KRas G12D (Homo sapiens, UniProt P01116, G12D); experiment: KRas G12D Binding Assay (TR-FRET displacement of labeled tracer); conditions: TR-FRET displacement of Cy5 labelled tracer, biotinylated GDP-loaded KRAS G12D (aa 1:169), 60 minute incubation at 22° C.
IC50 reference
Hi! Could you send only the number? It should be in nM, unit omitted.

>  <compound>
CN1CCC[C@H]1COc1nc2c(c(N3C[C@@H]4C[C@H](O)[C@H](C3)N4)n1)CCN(c1cc(O)cc3ccccc13)C2 (single isomer, unassigned)

>  <measured_result>
775

$$$$

Input: What value of IC50 has been recorded for this entry: CCc1c(F)ccc2cc(O)cc(N3CCc4c(nc(OC[C@@]56CCCN5C[C@H](F)C6)nc4N4C[C@H]5CC[C@@H](C4)N5)C3)c12
Output: 2.1

====

target: KRas G12D (Homo sapiens, UniProt P01116, G12D); assay: KRas G12D Binding Assay (TR-FRET displacement of labeled tracer); details: TR-FRET displacement of Cy5 labelled tracer, biotinylated GDP-loaded KRAS G12D (aa 1:169), 60 minute incubation at 22° C.
readout_label: IC50 (nM)
Hi! Could you send only the number? It should be in nM, unit omitted.

Answered examples (4):
>  <compound>
CCc1cccc2cc(O)cc(N3CCc4c(nc(OCC56CCCN5C(CF)CC6)nc4N4CC5CCC(C4)N5)C3)c12 (mixture of isomers) [Example 23]

>  <units_of_measure>
nM

>  <IC50>
1.1

$$$$
>  <compound>
CCc1cccc2cccc(N3CCc4c(nc(OCC56CCCN5CCC6)nc4N4C[C@H]5CC[C@@H](C4)N5)C3)c12 [Example 10]

>  <units_of_measure>
nM

>  <IC50>
1.1

$$$$
>  <compound>
CN1CCC[C@H]1COc1nc2c(c(N3C[C@H]4C[C@@H](O)[C@@H](C3)N4)n1)CCN(c1cc(O)cc3ccccc13)C2 (single isomer, unassigned) [Example 54]

>  <units_of_measure>
nM

>  <IC50>
41.1

$$$$
>  <compound>
Cc1cccc2cccc(N3CCc4c(nc(OC[C@@H]5CCCN5C)nc4N4C[C@H]5CC[C@@H](C4)N5)C3)c12 [Example 52]

>  <units_of_measure>
nM

>  <IC50>
361

$$$$

Input: What value of IC50 has been recorded for this entry: F[C@H]1CN2CCCC2(COc2nc3c(c(N4CC5CCC(C4)N5)n2)CCN(c2cccc(Cl)c2C2CC2)C3)C1 (mixture of isomers) [Example 17]
Output: 29.5

====

molecular target: KRas G12D (Homo sapiens, UniProt P01116, G12D); test: KRas G12D Binding Assay (TR-FRET displacement of labeled tracer); details: TR-FRET displacement of Cy5 labelled tracer, biotinylated GDP-loaded KRAS G12D (aa 1:169), 60 minute incubation at 22° C.
readout_label: IC50

>  <compound>
Cc1c(O)cc(N2CCc3c(nc(OC[C@@H]4CCCN4C)nc3N3C[C@H]4CC[C@@H](C3)N4)C2)c2ccccc12

>  <system_name>
KRas G12D (Homo sapiens, UniProt P01116, G12D)

>  <IC50>
> 10 µM

$$$$
>  <compound>
CNC(=O)OC[C@H]1CCC2(COc3nc4c(c(N5CC6CCC(C5)N6)n3)CCN(c3cccc5cccc(C)c35)C4)CCCN12 (stereo partly drawn)

>  <system_name>
KRas G12D (Homo sapiens, UniProt P01116, G12D)

>  <IC50>
0.0123 µM

$$$$

Now consider a different compound.
Input: Provide the documented IC50 with KRas G12D (Homo sapiens, UniProt P01116, G12D) as the system for FC1CN2CCCC2(COc2nc3c(c(N4CC5CC(F)C(C4)N5)n2)CCN(c2cccc4cccc(Cl)c24)C3)C1 (racemic)
Output: 0.0435 µM

====

target: KRas G12D (Homo sapiens, UniProt P01116, G12D); test: KRas G12D Binding Assay (TR-FRET displacement of labeled tracer); details: TR-FRET displacement of Cy5 labelled tracer, biotinylated GDP-loaded KRAS G12D (aa 1:169), 60 minute incubation at 22° C.
readout_label: pIC50
Lab note: report pIC50 as minus log10 of the concentration in molar units, number only.

Answered examples (5):
>  <compound>
Oc1cc(N2CCc3c(nc(OC[C@@H]4CCCN4)nc3N3C[C@H]4CC[C@@H](C3)N4)C2)c2ccccc2c1Cl [Example 27]

>  <measured_result>
5.80

$$$$
>  <compound>
CCc1cccc2cc(O)cc(N3CCc4c(nc(OCC56CCCN5C[C@H](F)C6)nc4N4CC5CCC(C4)N5)C3)c12 (mixture of isomers) [Example 6]

>  <measured_result>
9.10

$$$$
>  <compound>
CCc1cccc2cccc(N3CCc4c(nc(OCC56CCCN5C(COC(=O)N5CCS(=O)(=O)CC5)CC6)nc4N4C[C@H]5CC[C@@H](C4)N5)C3)c12 (mixture of isomers) [Example 67]

>  <measured_result>
8.82

$$$$
>  <compound>
CN1CCC[C@H]1COc1nc2c(c(N3C[C@H]4CC[C@@H](C3)N4)n1)CCN(c1c(F)c(O)c(F)c3ccccc13)C2 [Example 25]

>  <measured_result>
5.17

$$$$
>  <compound>
Oc1cc(N2CCc3c(nc(OCC45CCCN4C[C@H](F)C5)nc3N3CC4CCC(C3)N4)C2)c2c(Cl)cccc2c1 (mixture of isomers) [Example 49]

>  <measured_result>
9.30

$$$$

Now consider a different compound.
Input: What value of pIC50 has been recorded for this entry: CN1CCC[C@H]1COc1nc2c(c(N3C[C@H]4C[C@H](O)[C@@H](C3)N4)n1)CCN(c1cccc3cccc(Cl)c13)C2 [Example 96]
Output: 6.48

====

target: KRas G12D (Homo sapiens, UniProt P01116, G12D); assay: KRas G12D Binding Assay (TR-FRET displacement of labeled tracer); details: TR-FRET displacement of Cy5 labelled tracer, biotinylated GDP-loaded KRAS G12D (aa 1:169), 60 minute incubation at 22° C.
Labelling field: enter yes if recorded IC50 is less than 50 nM. Enter no if it equals or exceeds that cut-off.

Input: Please determine if O[C@@H]1C[C@@H]2CN(c3nc(OCCC(F)(F)F)nc4c3CCN(c3cccc5cccc(Cl)c35)C4)C[C@H]1N2 [Example 86] is below 50 nM in terms of IC50.
Output: no

====

molecular target: KRas G12D (Homo sapiens, UniProt P01116, G12D); assay: KRas G12D Surface Plasmon Resonance (SPR) Binding Assay; details: Biacore T200, biotinylated Avidin-tagged KRAS protein on SA chip, 20 C, 1:1 binding model
Sequence (P01116 1-188 isoform P01116-2 G12D): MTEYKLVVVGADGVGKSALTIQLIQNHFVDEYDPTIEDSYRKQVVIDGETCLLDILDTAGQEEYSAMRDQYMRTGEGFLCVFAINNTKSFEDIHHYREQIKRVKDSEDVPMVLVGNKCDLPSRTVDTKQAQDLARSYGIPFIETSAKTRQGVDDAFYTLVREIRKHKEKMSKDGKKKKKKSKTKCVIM
Labelling field: enter satisfied if recorded Kd is less than 0.1 µM. Enter not satisfied if it equals or exceeds that cut-off.

>  <compound>
CN1CCC[C@H]1COc1nc2c(c(N3CC4CCC(C)(C3)N4)n1)CCN(c1cc(O)cc3ccccc13)C2 (stereo partly shown)

>  <system_name>
KRas G12D (Homo sapiens, UniProt P01116, G12D)

>  <label_class>
not satisfied

$$$$
>  <compound>
Oc1cc(N2CCc3c(nc(OCC45CCCN4CCC5)nc3N3C[C@H]4CC[C@@H](C3)N4)C2)c2ccccc2c1

>  <system_name>
KRas G12D (Homo sapiens, UniProt P01116, G12D)

>  <label_class>
satisfied

$$$$
>  <compound>
CN1CCC[C@H]1COc1nc2c(c(N3C[C@H]4CC[C@@H](C3)N4)n1)CCN(c1cc(O)cc3ccccc13)C2

>  <system_name>
KRas G12D (Homo sapiens, UniProt P01116, G12D)

>  <label_class>
not satisfied

$$$$
>  <compound>
Clc1cccc2cccc(N3CCc4c(nc(OCC56CCCN5CCC6)nc4N4C[C@H]5CC[C@@H](C4)N5)C3)c12

>  <system_name>
KRas G12D (Homo sapiens, UniProt P01116, G12D)

>  <label_class>
satisfied

$$$$
>  <compound>
CN1CCC[C@H]1COc1nc2c(c(N3C[C@H]4CC[C@@H](C3)N4)n1)CCN(c1cccc3cccc(CCC#N)c13)C2

>  <system_name>
KRas G12D (Homo sapiens, UniProt P01116, G12D)

>  <label_class>
not satisfied

$$$$
>  <compound>
CN1CCC[C@H]1COc1nc2c(c(N3C[C@H]4CC[C@@H](C3)N4)n1)CCN(c1c(O)cccc1F)C2

>  <system_name>
KRas G12D (Homo sapiens, UniProt P01116, G12D)

>  <label_class>
not satisfied

$$$$
>  <compound>
CO[C@@H]1C[C@@H]2CN(c3nc(OCC45CCCN4CC(F)C5)nc4c3CCN(c3cccc5cccc(Cl)c35)C4)C[C@H]1N2 (mixture of isomers)

>  <system_name>
KRas G12D (Homo sapiens, UniProt P01116, G12D)

>  <label_class>
satisfied

$$$$
>  <compound>
CN1CCC[C@H]1COc1nc2c(c(N3C[C@H]4CC[C@@H](C3)N4)n1)CCN(c1cccc3cccc(CCCO)c13)C2

>  <system_name>
KRas G12D (Homo sapiens, UniProt P01116, G12D)

>  <label_class>
not satisfied

$$$$
>  <compound>
CN1CCC[C@H]1COc1nc2c(c(N3C[C@H]4CC[C@@H](C3)N4)n1)CCN(c1cccc3ccc(F)cc13)C2

>  <system_name>
KRas G12D (Homo sapiens, UniProt P01116, G12D)

>  <label_class>
not satisfied

$$$$
>  <compound>
FC(F)(F)c1c(Cl)cccc1N1CCc2c(nc(OCC34CCCN3CCC4)nc2N2C[C@H]3CC[C@@H](C2)N3)C1

>  <system_name>
KRas G12D (Homo sapiens, UniProt P01116, G12D)

>  <label_class>
satisfied

$$$$

Input: Please determine if CN1CCC[C@H]1COc1nc2c(c(N3C[C@H]4CC[C@@H](C3)N4)n1)CCN(c1cc(O)cc3cccc(Cl)c13)C2 is below 0.1 µM in terms of Kd.
Output: not satisfied

Input: Please determine if CN1CCC[C@H]1COc1nc2c(c(N3C[C@H]4C[C@@H](O)[C@@H](C3)N4)n1)CCN(c1cc(O)cc3ccccc13)C2 (single isomer, unassigned) is below 0.1 µM in terms of Kd.
Output: not satisfied

Input: Please determine if O[C@@H]1C[C@@H]2CN(c3nc(OCCC(F)(F)F)nc4c3CCN(c3cccc5cccc(Cl)c35)C4)C[C@H]1N2 is below 0.1 µM in terms of Kd.
Output: not satisfied
